# System Name: Link_TSG6 (Homo sapiens, UniProt P98066)
# Construct: made in house
# Sequence (P98066 36-129 limits assumed): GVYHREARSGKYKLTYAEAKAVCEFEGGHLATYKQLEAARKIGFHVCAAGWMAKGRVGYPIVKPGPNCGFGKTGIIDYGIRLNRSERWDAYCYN
# Assay Protocol: ITC of HA oligosaccharides binding to Link_TSG6
# Particulars: Table 4; ITC, 25 °C, 5 mM MES pH 6.0; mean ± SEM

Compound | Output Unit | −TΔS
CC(=O)N[C@H]1[C@H](O[C@H]2[C@H](O)[C@@H](O)[C@H](O[C@H]3[C@H](O)[C@@H](CO)O[C@@H](O[C@H]4[C@H](O)[C@@H](O)[C@H](O[C@H]5[C@H](O)[C@@H](CO)O[C@@H](O[C@H]6[C@H](O)[C@@H](O)[C@H](O[C@@H]([C@H](O)[C@H](O)CO)[C@H](CNc7ccc8c(c7)CCC8)NC(C)=O)O[C@@H]6C(=O)O)[C@@H]5NC(C)=O)O[C@@H]4C(=O)O)[C@@H]3NC(C)=O)O[C@@H]2C(=O)O)O[C@H](CO)[C@@H](O)[C@@H]1O[C@@H]1O[C@H](C(=O)O)[C@@H](O)[C@H](O)[C@H]1O [HA8-5AI] | kcal•mol^a1 | −1.91
CC(=O)N[C@H]1[C@H](O[C@H]2[C@H](O)[C@@H](O)[C@H](O[C@H]3[C@H](O)[C@@H](CO)O[C@@H](O[C@H]4[C@H](O)[C@@H](O)[C@H](O[C@H]5[C@H](O)[C@@H](CO)OC(O)[C@@H]5NC(C)=O)O[C@@H]4C(=O)O)[C@@H]3NC(C)=O)O[C@@H]2C(=O)O)O[C@H](CO)[C@@H](O)[C@@H]1O[C@@H]1O[C@H](C(=O)O)[C@@H](O)[C@H](O)[C@H]1O (some centres unmarked) [HA6^AN, reference compound] | kcal•mol^a1 | 0.162

* * *

# System Name: Link_TSG6 (Homo sapiens)
# Construct: made in house
# Assay Protocol: ITC of HA oligosaccharides binding to Link_TSG6
# Particulars: Table 1; ITC, 25 °C, 5 mM MES pH 6.0; mean ± SEM
# Method: ITC experiments were performed using a MicroCal PEAQ-ITC instrument (Malvern Instruments). Oligosaccharide stock solutions were prepared at 0.29 mM (in 5 mM MES, pH 6.0) and injected (18 × 2 μl with 120 s spacing between injections) into the cell containing ∼200 μl Link_TSG6 (0.029 mM) in matched buffer at 25 °C. […] Each oligosaccharide was analyzed in four independently performed ITC experiments.
Recorded ΔG values for a group of compounds are listed next.

Compound | Output Unit | ΔG
CC(=O)N[C@H]1[C@H](O[C@H]2[C@H](O)[C@@H](O)[C@H](O[C@H]3[C@H](O)[C@@H](CO)O[C@@H](O[C@H]4[C@H](O)[C@@H](O)[C@H](O[C@@H]([C@H](O)[C@H](O)CO)[C@H](CNc5ccc(C(=O)O)cc5)NC(C)=O)O[C@@H]4C(=O)O)[C@@H]3NC(C)=O)O[C@@H]2C(=O)O)O[C@H](CO)[C@@H](O)[C@@H]1O[C@@H]1O[C@H](C(=O)O)[C@@H](O)[C@H](O)[C@H]1O [HA6-4AA] | kcal/mol | -8.40
CC(=O)N[C@H]1[C@H](O[C@H]2[C@H](O)[C@@H](O)[C@H](O[C@H]3[C@H](O)[C@@H](CO)O[C@@H](O[C@H]4[C@H](O)[C@@H](O)[C@H](O[C@@H]([C@H](O)[C@H](O)CO)[C@H](CNc5cccc(C(=O)O)c5)NC(C)=O)O[C@@H]4C(=O)O)[C@@H]3NC(C)=O)O[C@@H]2C(=O)O)O[C@H](CO)[C@@H](O)[C@@H]1O[C@@H]1O[C@H](C(=O)O)[C@@H](O)[C@H](O)[C@H]1O [HA6-3AA] | kcal/mol | -8.61
